assayed_target: Sterol 14-alpha demethylase (Trypanosoma cruzi (strain CL Brener)) (UniProt Q7Z1V1)
Sequence (Q7Z1V1 whole entry, looked up): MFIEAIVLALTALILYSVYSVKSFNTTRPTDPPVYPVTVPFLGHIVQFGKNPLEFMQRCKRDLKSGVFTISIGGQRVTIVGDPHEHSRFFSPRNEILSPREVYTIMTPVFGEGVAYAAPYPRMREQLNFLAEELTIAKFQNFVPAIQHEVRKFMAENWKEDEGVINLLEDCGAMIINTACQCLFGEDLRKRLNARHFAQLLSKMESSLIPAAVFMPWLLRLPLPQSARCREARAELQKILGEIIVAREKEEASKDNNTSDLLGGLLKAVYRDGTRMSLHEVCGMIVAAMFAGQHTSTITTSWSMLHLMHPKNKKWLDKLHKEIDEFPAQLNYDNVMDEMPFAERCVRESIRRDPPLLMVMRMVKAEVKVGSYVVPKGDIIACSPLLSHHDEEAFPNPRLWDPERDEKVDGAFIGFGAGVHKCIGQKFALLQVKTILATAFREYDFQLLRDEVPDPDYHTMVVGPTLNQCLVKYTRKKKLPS
run_description: TcCYP51 inhibitors, dose response, mechanism study for T. cruzi antiparasitic project, biochemical, recombinant enzyme (AID 1159558);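 note: enzyme in bacterial membranes with Anopheles gambiae CYP reductase and cytochrome b5 partners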
setup_conditions: recombinant T. cruzi CYP51, BOMCC fluorescence
The source made the active and inactive calls.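 Rule for the calls: active = IC50 against T. cruzi CYP51 below a set limit; inactive = the rest.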
Outcome codes: active, inactive

# compound, assayed_target, label_value
rows = [
    ("Cc1ccccc1NS(=O)(=O)c1ccc2[nH]cc(C(=O)NC3CCCC3)c(=O)c2c1", "Sterol 14-alpha demethylase (Trypanosoma cruzi (strain CL Brener)) (UniProt Q7Z1V1)", "active"),
    ("Cc1ccccc1CNc1cc(C2CC2)nc(-c2nccn2C)n1", "Sterol 14-alpha demethylase (Trypanosoma cruzi (strain CL Brener)) (UniProt Q7Z1V1)", "active"),
    ("CC(C)(C)C(=O)NCCc1csc(-c2ccc(F)cc2)n1", "Sterol 14-alpha demethylase (Trypanosoma cruzi (strain CL Brener)) (UniProt Q7Z1V1)", "active"),
    ("O=C(Cc1ccccc1)Nc1[nH]nc2sc(C(=O)NC3CCCC3)cc12", "Sterol 14-alpha demethylase (Trypanosoma cruzi (strain CL Brener)) (UniProt Q7Z1V1)", "active"),
    ("O=C(Nc1ccc(S(=O)(=O)N2CCCC2)cc1)c1ccc([N+](=O)[O-])s1", "Sterol 14-alpha demethylase (Trypanosoma cruzi (strain CL Brener)) (UniProt Q7Z1V1)", "inactive"),
    ("COc1ccc(NS(=O)(=O)c2cc(-c3cc(C)[nH]n3)ccc2C)cc1OC", "Sterol 14-alpha demethylase (Trypanosoma cruzi (strain CL Brener)) (UniProt Q7Z1V1)", "active"),
    ("O=[N+]([O-])c1ccc(C2=CC(c3ccccc3)=NCCN2)cc1", "Sterol 14-alpha demethylase (Trypanosoma cruzi (strain CL Brener)) (UniProt Q7Z1V1)", "active"),
    ("O=C(Nc1ccccc1)Nc1nc(-c2ccccn2)cs1", "Sterol 14-alpha demethylase (Trypanosoma cruzi (strain CL Brener)) (UniProt Q7Z1V1)", "active"),
    ("O=C(c1cc2cc(Cl)ccc2[nH]1)N1CCCCC1c1cccnc1 (centres undefined)", "Sterol 14-alpha demethylase (Trypanosoma cruzi (strain CL Brener)) (UniProt Q7Z1V1)", "active"),
    ("O=C(NC1CCN(C2Cc3ccc(NS(=O)(=O)c4cc(F)cc(F)c4)cc3C2)CC1)C1CC1 (centres undefined)", "Sterol 14-alpha demethylase (Trypanosoma cruzi (strain CL Brener)) (UniProt Q7Z1V1)", "active"),
    ("N#Cc1cccc(Cc2cc(Nc3cc(C4CC4)[nH]n3)nc(N3CC[C@H]3C(N)=O)n2)c1", "Sterol 14-alpha demethylase (Trypanosoma cruzi (strain CL Brener)) (UniProt Q7Z1V1)", "active"),
    ("O=C(Nc1cccc(S(=O)(=O)Nc2ccc(Br)cc2)c1)c1ccc([N+](=O)[O-])s1", "Sterol 14-alpha demethylase (Trypanosoma cruzi (strain CL Brener)) (UniProt Q7Z1V1)", "active"),
    ("CCOC(=O)c1noc(N)c1-c1ccccc1", "Sterol 14-alpha demethylase (Trypanosoma cruzi (strain CL Brener)) (UniProt Q7Z1V1)", "inactive"),
    ("CNc1nc(C)nc(N2CCc3cc(C(=O)NCc4ccc(-c5nccn5C)cc4Cl)ccc32)n1", "Sterol 14-alpha demethylase (Trypanosoma cruzi (strain CL Brener)) (UniProt Q7Z1V1)", "active"),
]

###

assayed_target: Sterol 14-alpha demethylase (Trypanosoma cruzi (strain CL Brener)) (UniProt Q7Z1V1)
run_description: TcCYP51 inhibitors, dose response, mechanism study for T. cruzi antiparasitic project, biochemical, recombinant enzyme (AID 1159558);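 note: enzyme in bacterial membranes with Anopheles gambiae CYP reductase and cytochrome b5 partners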
setup_conditions: recombinant T. cruzi CYP51, BOMCC fluorescence

# molecule, IC50
data = [
    ("CCCn1c(NC(=O)CCn2cc(Br)cn2)nc2ccccc21", "10 µM"),
    ("Nc1nonc1-c1nc2cncc(C(=O)N3CC[C@H](N)C3)c2n1CC1CC1", "13 µM"),
    ("COc1ncc(-c2ccc3nccc(-c4ccncc4)c3c2)cc1NS(=O)(=O)C1CC1", "7.9 µM"),
    ("CC1(Oc2cncc(Cl)c2)CCN(Cc2cc3ccccc3[nH]2)C1 (centres undefined)", "10 µM"),
]

###

assayed_target: Sterol 14-alpha demethylase (Trypanosoma cruzi (strain CL Brener)) (UniProt Q7Z1V1)
run_description: TcCYP51 inhibitors, dose response, mechanism study for T. cruzi antiparasitic project, biochemical, recombinant enzyme (AID 1159558);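 note: enzyme in bacterial membranes with Anopheles gambiae CYP reductase and cytochrome b5 partners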
setup_conditions: recombinant T. cruzi CYP51, BOMCC fluorescence
Calls of active or inactive are those of the source.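 Rule for the calls: active = IC50 against T. cruzi CYP51 below a set limit; inactive = the rest.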
Outcome codes: active, inactive

# compound, label_value
measured = [
    ("CCOc1ccc2nc(NC(=O)c3ccc([N+](=O)[O-])s3)sc2c1", "inactive"),
    ("COc1ccc2nccc(NC(=O)C3(OC)CCN(CC(O)c4ccc5c(c4)OCCO5)CC3)c2n1 (stereo not given)", "active"),
    ("NC(=O)c1cc(F)ccc1Nc1nc(NC2CCC(O)CC2)ncc1Cl (stereo not given)", "active"),
    ("CCN(Cc1ccncc1)Cc1ccc(NC(=O)c2cc(-c3ccc(F)cc3)n[nH]2)cc1", "active"),
    ("COc1ccc(Cl)cc1CC(=O)Nc1n[nH]c(-c2ccccn2)n1", "inactive"),
    ("CCCC(=O)N(Cc1ccccn1)c1nc2ccccc2s1", "active"),
    ("CCc1ccccc1[C@@H](C)NC(=O)c1cnc2c(cnn2CC)c1NC1CCN(C(N)=O)CC1", "active"),
    ("CC(C)(C)C(O)(CCc1ccc(Cl)cc1)Cn1cncn1 (stereo not given)", "active"),
    ("O=C(CN1CCN(S(=O)(=O)c2cccc([N+](=O)[O-])c2)CC1)Nc1ccc(Oc2ccccc2)cc1", "active"),
    ("COc1cc(NC(=O)Nc2cccc(CNC(=O)OC3CCCCC3)c2)ccc1-c1cnco1", "active"),
    ("O=C(NCc1nnc2n1CCCCC2)c1csc(-c2ccccc2)n1", "inactive"),
    ("CC(c1ccccn1)N(C)Cc1nc2ccccc2n1C(C)C (stereo not given)", "active"),
    ("Nc1nccc(-c2csc(Nc3ccc(Cl)cc3)n2)n1", "active"),
    ("NC(=O)c1ccccc1Nc1nc(NC2CCCCC2)nc2[nH]ccc12", "inactive"),
    ("Cc1cc(Br)sc1CNCCCNc1cc(=O)c2ccccc2[nH]1", "active"),
]

###

assayed_target: Sterol 14-alpha demethylase (Trypanosoma cruzi (strain CL Brener))
run_description: TcCYP51 inhibitors, dose response, mechanism study for T. cruzi antiparasitic project, biochemical, recombinant enzyme (AID 1159558);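 note: enzyme in bacterial membranes with Anopheles gambiae CYP reductase and cytochrome b5 partners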
setup_conditions: recombinant T. cruzi CYP51, BOMCC fluorescence
The source made the active and inactive calls.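 Rule for the calls: active = IC50 against T. cruzi CYP51 below a set limit; inactive = the rest.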
Outcome codes: active, inactive

# compound, label_value
rows = [
    ("COc1ccc([N+](=O)[O-])cc1NC(=O)Nc1cccc(Cl)c1", "inactive"),
    ("COCc1cc(Nc2ccccc2)nc(-c2ccccn2)n1", "inactive"),
    ("O=C(Cn1cnc2cc([N+](=O)[O-])ccc2c1=O)NCCc1ccc(Cl)cc1Cl", "inactive"),
    ("Cc1ccc2c(c1)SC(C(=O)Nc1n[nH]c(-c3ccccn3)n1)C2 (centres undefined)", "inactive"),
    ("COc1ccc(C2CC(c3ccc(NS(C)(=O)=O)cc3)=NN2C(=O)c2cccs2)cc1OC (centres undefined)", "active"),
    ("CCC1Oc2cc(S(=O)(=O)N(C)CC(=O)N3CCc4ccccc4C3)c(C)cc2NC1=O (centres undefined)", "active"),
    ("Cn1ccnc1CN1CCc2[nH]cnc2C1c1ccccc1OCc1ccccc1 (centres undefined)", "active"),
    ("O=C(c1ccc(OCCCc2cnc[nH]2)cc1)C1CC1", "active"),
    ("Cn1cc(CN2CCN(c3ccc4c(c3)CCN(C(=O)[C@H]3C[C@@H]3c3ccccc3)CC4)CC2)cn1", "active"),
    ("O=C(Cc1ccc2c(c1)CCC2)Nc1n[nH]c(-c2ccccn2)n1", "active"),
    ("CC(Cn1ccnc1)NC(=O)C1CC1c1cccc(Cl)c1Cl (centres undefined)", "active"),
    ("COc1ccc(OC)c(S(=O)(=O)N(Cc2c(F)cccc2F)[C@@H]2CCN(C#N)C2)c1", "inactive"),
    ("CC(=O)NCCNc1cc(-c2ccnc(Nc3cccc(Cl)c3)n2)ccn1", "active"),
    ("O=C(c1ccccc1)N1CCC(C(=O)N2CCC(Oc3ccccc3Cl)CC2)CC1", "active"),
    ("Cc1sc(C)c(C(F)(F)F)c1CNCCCNc1cc(=O)c2ccccc2[nH]1", "active"),
    ("O=C(COc1nn(-c2ccccc2)c2ncccc12)NCc1ccccc1", "active"),
    ("Cc1ccnc(NS(=O)(=O)c2ccc(NC(=O)c3ccc([N+](=O)[O-])s3)cc2)n1", "active"),
    ("C[C@@H](Oc1cc(-n2cnc3cc(N)ccc32)sc1C(N)=O)c1ccccc1Cl", "active"),
    ("CCOc1ccc(Nc2ccc(S(=O)(=O)N3CCN(C)CC3)cc2[N+](=O)[O-])cc1OCC", "active"),
]
